Reference source: patent US20080021056A1

Target: gamma-secretase (Homo sapiens, UniProt P49768)
Construct: partially purified extract of IMR-32 cell membranes as the gamma-secretase enzyme preparation; endogenous in cells; host or cells: IMR-32 cell membranes (partially purified extract)
Test: Gamma-secretase APP enzyme assay
Assay type: biochemical
Details: cleavage of MBP-C125 Swe substrate at the Aβ40 site; partially purified extract of IMR-32 cell membranes; ELISA; enantiomer B
ATTRIBUTE_MEASURED: IC50

Example entries begin here.
INSERT INTO measurements (compound, recorded_value) VALUES
  ('O=S(=O)(c1ccc(C(F)(F)F)nc1)N1c2ccc(F)cc2-c2n[nH]cc2C1C1CC1 (single isomer, unassigned)', '0.0001 to 0.1 µM'),
  ('O=S(=O)(c1ccc(C(F)(F)F)nc1)N1c2cc(F)c(F)cc2-c2[nH]ncc2C1C1CC1 (single isomer, unassigned)', '0.0001 to 0.1 µM'),
  ('O=S(=O)(c1ccc(C(F)(F)F)cc1)N1c2ccc(F)cc2-c2[nH]ncc2C1C1CC1 (single isomer, unassigned)', '0.101 to 0.5 µM'),
  ('CC1c2cn[nH]c2-c2cc(F)c(F)cc2N1S(=O)(=O)c1ccc(C(F)(F)F)cc1 (single isomer, unassigned)', '0.101 to 0.5 µM');

Readout IC50 for O=S(=O)(c1ccc(C(F)(F)F)cn1)N1c2ccc(F)cc2-c2[nH]ncc2C1C1CC1 (single isomer, unassigned) , test system gamma-secretase (Homo sapiens, UniProt P49768), was 0.0001 to 0.1 µM

----------
IC50: recorded values
Biological target: gamma-secretase (Homo sapiens, UniProt P49768)
Construct: partially purified extract of IMR-32 cell membranes as the gamma-secretase enzyme preparation; endogenous in cells; host or cells: IMR-32 cell membranes (partially purified extract)
Assay: Gamma-secretase APP enzyme assay
Assay type: biochemical
Details: cleavage of MBP-C125 Swe substrate at the Aβ40 site; partially purified extract of IMR-32 cell membranes; ELISA

Previously resolved entries follow.
INSERT INTO results (compound, assay_target, recorded_value) VALUES
  ('O=S(=O)(c1ccc(C(F)(F)F)nc1)N1c2ccccc2-c2[nH]ncc2C1C1CC1 (centres unmarked)', 'gamma-secretase (Homo sapiens, UniProt P49768)', '0.1 to 100 nM'),
  ('Cc1nc2c(s1)N(S(=O)(=O)c1ccc(C(F)(F)F)cc1)C(C1CC1)c1c[nH]nc1-2 (centres unmarked)', 'gamma-secretase (Homo sapiens, UniProt P49768)', '0.1 to 100 nM'),
  ('O=S(=O)(c1ccc(F)cc1)N1c2cc(F)c(F)cc2-c2n[nH]cc2C1C1CC1 (single isomer, unassigned)', 'gamma-secretase (Homo sapiens, UniProt P49768)', '0.1 to 100 nM'),
  ('O=S(=O)(c1ccc(C(F)(F)F)cc1)N1c2ccccc2-c2[nH]ncc2C12CC2', 'gamma-secretase (Homo sapiens, UniProt P49768)', '0.1 to 100 nM');

--- query ---
Record summary for COc1cccc2c1-c1[nH]ncc1C(C)N2S(=O)(=O)c1ccc(Cl)cc1 (centres unmarked) : reported IC50 = 1000 to 10000 nM

----------
Molecular target: gamma-secretase (Homo sapiens, UniProt P49768)
Construct: partially purified extract of IMR-32 cell membranes as the gamma-secretase enzyme preparation; endogenous in cells; host or cells: IMR-32 cell membranes (partially purified extract)
Test: Gamma-secretase APP enzyme assay
Format: biochemical
Conditions: cleavage of MBP-C125 Swe substrate at the Aβ40 site; partially purified extract of IMR-32 cell membranes; ELISA
pIC50: −log10 of the molar value.
Recorded pIC50, one value per entry.

Solved entries (count: 5):
INSERT INTO results (compound, attribute_measured, recorded_value) VALUES
  ('CCC1c2cn[nH]c2-c2cc(F)c(F)cc2N1S(=O)(=O)c1ccc(C(F)(F)F)cn1 (centres unmarked)', 'pIC50', '7.00 to 10.00'),
  ('CC1c2c[nH]nc2-c2cc(F)ccc2N1S(=O)(=O)c1cn(C)cn1 (centres unmarked)', 'pIC50', '5.00 to 6.00'),
  ('O=S(=O)(c1ccc(Cl)cc1)N1Cc2cn[nH]c2-n2ccnc21', 'pIC50', '6.30 to 7.00'),
  ('O=S(=O)(c1ccc(C(F)(F)F)cc1)N1c2ccc(F)cc2-c2[nH]ncc2C1C1CC1 (racemic)', 'pIC50', '7.00 to 10.00'),
  ('O=S(=O)(c1ccc(OC(F)(F)F)cc1)N1c2cc(OC(F)(F)F)ccc2-c2n[nH]cc2[C@H]1C1CC1', 'pIC50', '7.00 to 10.00');

pIC50 on gamma-secretase (Homo sapiens, UniProt P49768) for CCC1c2cn[nH]c2-c2ccccc2N1S(=O)(=O)c1ccc(Cl)cc1 (centres unmarked) is 7.00 to 10.00

Field pIC50 (gamma-secretase (Homo sapiens, UniProt P49768)), entry Cc1n[nH]c2c1CN(S(=O)(=O)c1ccc(Cl)cc1)c1ccccc1-2 : 5.00 to 6.00

----------
Biological target: gamma-secretase (Homo sapiens)
Construct: partially purified extract of IMR-32 cell membranes as the gamma-secretase enzyme preparation; endogenous in cells; host or cells: IMR-32 cell membranes (partially purified extract)
Assay: Gamma-secretase APP enzyme assay
Format: biochemical
Details: cleavage of MBP-C125 Swe substrate at the Aβ40 site; partially purified extract of IMR-32 cell membranes; ELISA; enantiomer B
ATTRIBUTE_MEASURED: IC50

Solved entries (count: 2):
INSERT INTO measurements (molecule, attribute_measured, recorded_value) VALUES
  ('CC1c2cnc(N)nc2-c2cc(F)ccc2N1S(=O)(=O)c1ccc(F)cc1 (single isomer, unassigned)', 'IC50', '0.101 to 0.5 µM'),
  ('CC1c2cn[nH]c2C2CCCCC2N1S(=O)(=O)c1ccc(Cl)cc1 (single isomer, unassigned)', 'IC50', '0.0001 to 0.1 µM');

Observed IC50 on gamma-secretase (Homo sapiens), entry CC1c2cn[nH]c2-c2cc(O)c(O)cc2N1S(=O)(=O)c1ccc(Cl)cc1 (single isomer, unassigned) , equals 0.101 to 0.5 µM

// molecule CC1c2c[nH]nc2-c2ccccc2N1S(=O)(=O)c1ccccn1 (single isomer, unassigned) , assay gamma-secretase (Homo sapiens), IC50 value: 1 to 10 µM

gamma-secretase (Homo sapiens) assay, molecule O=S(=O)(c1ccc(Cl)s1)N1c2cc(F)c(F)cc2-c2n[nH]cc2C1C1CC1 (single isomer, unassigned) , recorded IC50 = 0.0001 to 0.1 µM

Known value: gamma-secretase (Homo sapiens) IC50 of the molecule CC1c2cn[nH]c2-c2ccc(O)cc2N1S(=O)(=O)c1ccc(Cl)cc1 (single isomer, unassigned) equals 0.0001 to 0.1 µM

Measured on gamma-secretase (Homo sapiens), CC1c2c[nH]nc2-c2cc(F)c(F)cc2N1S(=O)(=O)c1ccc(Cl)cc1 (single isomer, unassigned) has a documented IC50 of 0.0001 to 0.1 µM

----------
Molecular target: gamma-secretase (Homo sapiens, UniProt P49768)
Construct: partially purified extract of IMR-32 cell membranes as the gamma-secretase enzyme preparation; endogenous in cells; host or cells: IMR-32 cell membranes (partially purified extract)
Assay: Gamma-secretase APP enzyme assay
Type: biochemical
Details: cleavage of MBP-C125 Swe substrate at the Aβ40 site; partially purified extract of IMR-32 cell membranes; ELISA; enantiomer A
Quick reference for IC50 among some compounds

Study these solved cases before continuing.
INSERT INTO assay_data (compound, attribute_measured, recorded_value) VALUES
  ('CC1c2cnc(N)nc2-c2cc(F)ccc2N1S(=O)(=O)c1ccc(F)cc1 (single isomer, unassigned)', 'IC50', '1000 to 10000 nM'),
  ('O=S(=O)(c1ccc(C(F)(F)F)nc1)N1c2cc(F)c(F)cc2-c2[nH]ncc2C1C1CC1 (single isomer, unassigned)', 'IC50', '0.1 to 100 nM'),
  ('O=S(=O)(c1ccc(C(F)(F)F)cn1)N1c2ccc(F)cc2-c2[nH]ncc2C1C1CC1 (single isomer, unassigned)', 'IC50', '101 to 500 nM');

Please look at the following compound next.
Value sought: IC50, system gamma-secretase (Homo sapiens, UniProt P49768), item CC1c2c[nH]nc2-c2ccccc2N1S(=O)(=O)c1ccccn1 (single isomer, unassigned) . Result: 101 to 500 nM

----------
Target: gamma-secretase (Homo sapiens, UniProt P49768)
Construct: partially purified extract of IMR-32 cell membranes as the gamma-secretase enzyme preparation; endogenous in cells; host or cells: IMR-32 cell membranes (partially purified extract)
Experiment: Gamma-secretase APP enzyme assay
Type: biochemical
Settings: cleavage of MBP-C125 Swe substrate at the Aβ40 site; partially purified extract of IMR-32 cell membranes; ELISA
ATTRIBUTE_MEASURED: IC50

INSERT INTO measurements (compound, attribute_measured, recorded_value) VALUES
  ('O=S(=O)(c1ccc(Cl)cc1)N1Cc2c[nH]nc2-c2ccc(F)cc21', 'IC50', '0.1 to 100 nM');

The recorded IC50 for entry CC[C@@H]1c2cn[nH]c2-c2cc(F)c(F)cc2N1S(=O)(=O)c1ccc(C(F)(F)F)cc1 equals 0.1 to 100 nM

Noted for O=S(=O)(c1ncc(Cl)s1)N1c2cc(F)c(F)cc2-c2n[nH]cc2C1C1CC1 (stereo not drawn) : its IC50 reads 0.1 to 100 nM

The compound listed as CC1c2cn[nH]c2-c2cc(F)ccc2N1S(=O)(=O)c1ccc(-c2ccccn2)s1 (stereo not drawn) shows IC50 equal to 1000 to 10000 nM

Record CC1c2c[nH]nc2-c2cc(F)ccc2N1S(=O)(=O)c1cnn(C)c1 (stereo not drawn) . Reported IC50: 101 to 500 nM

The compound O=S(=O)(c1ccc(OC(F)(F)F)cc1)N1c2ccc(F)cc2-c2[nH]ncc2[C@H]1C1CC1 showed IC50 equal to 0.1 to 100 nM

Lab note: O=S(=O)(c1ccc(C(F)(F)F)cc1)N1c2nccn2-c2[nH]ncc2C1C1CC1 (stereo not drawn) gave IC50 of 501 to 1000 nM

Entry O=S(=O)(c1ccc(C(F)(F)F)nc1)N1c2cc(OC(F)(F)F)ccc2-c2n[nH]cc2[C@H]1C1CC1 ; IC50 = 0.1 to 100 nM

# compound O=c1c2cn[nH]c2c2cc(F)ccc2n1S(=O)(=O)c1ccc(Cl)cc1 ; its IC50 = 1000 to 10000 nM
